SUBJECT OF TEST: SIK3 (Homo sapiens, UniProt Q9Y2K2)
Construct: purchased SignalChem S12-11G-100
Sequence (Q9Y2K2 whole entry): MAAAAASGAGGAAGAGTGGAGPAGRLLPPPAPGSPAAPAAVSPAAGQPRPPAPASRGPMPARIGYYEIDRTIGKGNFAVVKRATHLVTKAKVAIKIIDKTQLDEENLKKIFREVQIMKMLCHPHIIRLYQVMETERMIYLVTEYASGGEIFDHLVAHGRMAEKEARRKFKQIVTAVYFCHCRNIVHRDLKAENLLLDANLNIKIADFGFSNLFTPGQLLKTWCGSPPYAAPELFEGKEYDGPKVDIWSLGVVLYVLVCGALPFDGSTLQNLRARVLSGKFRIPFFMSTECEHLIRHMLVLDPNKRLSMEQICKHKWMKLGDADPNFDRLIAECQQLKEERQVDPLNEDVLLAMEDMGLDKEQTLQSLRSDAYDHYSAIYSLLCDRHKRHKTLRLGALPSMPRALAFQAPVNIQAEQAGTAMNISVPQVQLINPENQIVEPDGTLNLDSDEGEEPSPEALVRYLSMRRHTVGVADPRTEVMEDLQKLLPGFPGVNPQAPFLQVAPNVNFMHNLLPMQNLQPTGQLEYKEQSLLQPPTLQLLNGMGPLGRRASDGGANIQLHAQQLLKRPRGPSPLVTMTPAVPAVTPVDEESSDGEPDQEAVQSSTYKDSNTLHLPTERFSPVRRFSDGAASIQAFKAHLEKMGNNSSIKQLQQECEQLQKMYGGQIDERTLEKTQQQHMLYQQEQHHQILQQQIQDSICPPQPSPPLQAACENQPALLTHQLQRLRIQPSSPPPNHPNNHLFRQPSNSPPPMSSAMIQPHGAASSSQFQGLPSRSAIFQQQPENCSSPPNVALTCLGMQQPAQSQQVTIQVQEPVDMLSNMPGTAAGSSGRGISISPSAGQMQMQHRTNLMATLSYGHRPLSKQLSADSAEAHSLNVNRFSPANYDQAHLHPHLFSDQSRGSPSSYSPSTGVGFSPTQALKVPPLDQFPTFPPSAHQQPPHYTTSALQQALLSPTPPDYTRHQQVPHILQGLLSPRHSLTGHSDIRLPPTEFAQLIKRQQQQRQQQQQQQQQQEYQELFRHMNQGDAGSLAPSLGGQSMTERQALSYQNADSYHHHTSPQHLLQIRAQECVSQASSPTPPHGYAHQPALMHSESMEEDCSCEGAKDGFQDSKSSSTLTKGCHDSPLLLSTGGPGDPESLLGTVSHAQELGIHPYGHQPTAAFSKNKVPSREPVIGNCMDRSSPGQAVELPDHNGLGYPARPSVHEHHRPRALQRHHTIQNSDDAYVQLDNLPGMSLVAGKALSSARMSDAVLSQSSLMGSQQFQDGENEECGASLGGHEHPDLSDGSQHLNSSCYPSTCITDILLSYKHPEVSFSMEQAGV
TEST DETAILS: biochemical
EXPERIMENTAL PARAMETERS: ADP-Glo SIK kinase assay
pIC50: −log10 of the molar value.
MEASURE NAME: pIC50

For CCOC(=O)Cn1cc(-c2ccn3c(-c4cc(OC)c(C(=O)NC5CC5)c(OC(F)F)c4)cnc3c2)cn1 , what is its reported pIC50? 8.00 to 11.00

Further cases:
What does the data say about its pIC50? Entry: Cn1cc(-c2ccn3c(-c4cc(F)c(C(=O)NCC(F)(F)F)c(F)c4)cnc3c2)cn1 7.00 to 8.00

And what about the compound COc1ccc(-c2ccn3c(-c4cc(OC)c(C(=O)NC5CC5)c(OC(F)F)c4)cnc3c2)nn1 ? 8.00 to 11.00

What about this compound? COc1cc(-c2cnc3cc(-c4ccc(C5CC5)nn4)ccn23)cc(OC(F)F)c1C(=O)NC1CC1 8.00 to 11.00

Same for COc1cc(-c2cnc3cc(-c4cc(C)no4)ccn23)cc(OC(F)F)c1C(=O)NC1CC1 8.00 to 11.00

Moving on to CCN1Cc2cc(-c3cnc4cc(-c5cnn(C)c5)ccn34)cc(OC)c2C1=O 8.00 to 11.00

Lookup CCOC(=O)C(Cn1cc(-c2ccn3c(-c4cc(OC)c(C(=O)NCC(F)(F)F)c(OC)c4)cnc3c2)cn1)C(C)C (stereo not drawn) 8.00 to 11.00

Try the compound COc1cc(-c2cnc3cc(-c4cnn(C)c4)ccn23)cc(NC(C)C)c1C(=O)NC1CC1 8.00 to 11.00

Same again, this time with COc1cc(-c2cnc3cc(-c4cnn(C)c4)ccn23)cc(OCCO)c1C(=O)NC1CC1 8.00 to 11.00

Further, for [2H]C([2H])([2H])Oc1cc(-c2cnc3cc(-c4cnn(C)c4)ccn23)cc(OC([2H])([2H])[2H])c1C(=O)NCC(F)(F)F ? 8.00 to 11.00
